B1: ZNF24 (parent)
chain: YGETCFPKGRFERKRNPSRKKQHI

variants of: B1; test: protein stability index of a GFP-peptide fusion (GPS, HEK-293T) (PSI 1-6); higher = more stable; conditions: c terminus: a fixed tail appended;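 further: lentivirally expressed fusions sorted by FACS into six bins by GFP to DsRed ratio, PSI derived from sequencing read proportions per bin multiplied by bin number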
# cutoff 3 applies to protein stability index; >= gives label 1, < gives label 0

S18N	label 1
F6A	label 1
K14T	label 0
S18L	label 1
K14S	label 0

Request: Evaluate `F6T` : protein stability index at minimum 3?
Result: label 1

Request: Try this variant next: `G9Y`
Result: label 1

Request: Try this variant next: `N16T`
Result: label 0

Request: Try this variant next: `K21E`
Result: label 1

Request: Try this variant next: `G2Y`
Result: label 0

Request: Try this variant next: `K8Y`
Result: label 0

Request: Try this variant next: `F6I`
Result: label 1

Request: Try this variant next: `C5R`
Result: label 1

Request: Try this variant next: `E12W`
Result: label 0

Request: Try this variant next: `P17F`
Result: label 0

Request: Try this variant next: `I24L`
Result: label 0

Request: Try this variant next: `F11N`
Result: label 1

Request: Try this variant next: `S18C`
Result: label 0

Request: Try this variant next: `R10Y`
Result: label 0

Request: Try this variant next: `R19P`
Result: label 1

Reference source: the supplement of paper PMC10567573
